assay_summary: modulators of CIT2-GFP expression in yeast, confirmation, S. cerevisiae, GFP fusion, cherry picks, mother/daughter gates (AID 2274)
run_conditions: S. cerevisiae CIT2-GFP strain, flow cytometry, 3 h; at 10 µM; stronger effect = higher value
Entries and their GFP response, % of DMSO values follow.
Numbers only here, please. The scale is %.

# compound, GFP response, % of DMSO / %
rows = [
    ("COC(=O)c1cc(S(=O)(=O)Nc2nn(C)c3ccccc23)oc1C", 99.7),
    ("Cn1ncc2c(O/N=C(\\N)c3ccc(C(C)(C)C)cc3)ncnc21", 182),
    ("CN1CC(=O)NC1=NC(=O)C12CC3CC(CC(C3)C1)C2", 93.5),
]

Inquiry: For CCOc1ccc(S(=O)(=O)N2CCc3ccccc3C2)cc1 , what is its reported GFP response, % of DMSO?
Reply text: 92.1

Inquiry: For Cc1ccccc1NC(=O)CC1SC(=O)N(c2ccccc2)C1=O (stereo not drawn) , what is its reported GFP response, % of DMSO?
Reply text: 104

Inquiry: For O=C1C(Cl)=C(Nc2ccccc2O)C(=O)N1CCc1ccccc1 , what is its reported GFP response, % of DMSO?
Reply text: 106

Inquiry: For COc1ccc(-c2noc(CCC(=O)Nc3cccc(C)c3)n2)cc1 , what is its reported GFP response, % of DMSO?
Reply text: 97.8

Inquiry: For Cc1cccc(Nc2nc(-c3ccccn3)cs2)n1 , what is its reported GFP response, % of DMSO?
Reply text: 100

----------
assay_summary: LAP4-GFP expression modulators in yeast, confirmation, cell-based, cherry picks, flow cytometry, mother/daughter gates (AID 2271);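 further: ratio of sample to DMSO plate mean so 100% equals DMSO level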
run_conditions: S. cerevisiae LAP4-GFP strain, 3 h, at 10 µM, 100 means same as DMSO control
Active and inactive are the calls of the source.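 Rule for the calls: active = GFP response above 150% of the DMSO control; inconclusive = fewer than 70 events counted in any yeast strain; inactive = the rest.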
Hello, when you answer, please use one of the following outcomes: active, inactive

# compound, discrete_label
data = [
    ("CSc1nc2ccc(S(=O)(=O)N3CCCC3)cc2s1", "inactive"),
    ("Cc1c(Cc2ccccc2)c(NCCN(C)C)n2c(nc3ccccc32)c1C#N", "active"),
    ("Cc1ccc(NC(=S)NCC23C=CC(O2)C2C(=O)N(c4ccc(C)cc4)C(=O)C23)cc1 (stereo unspecified)", "inactive"),
    ("Oc1ccc(C2Nc3cccc4cccc(c34)N2)cc1", "inactive"),
    ("CCOC(=O)/C=C1\\SCC(=O)N1Cc1nnc(-c2ccccc2Br)o1", "inactive"),
    ("O=C(CC1SC(=Nc2ccccc2F)N(CCN2CCOCC2)C1=O)Nc1ccc(F)cc1F (stereo unspecified)", "inactive"),
    ("Cc1cc(NC(=O)c2cc3ccccc3o2)ccc1NC(=O)c1ccccc1", "inactive"),
    ("CCCOc1ccc(C(=O)NNC(=S)NC(=O)CC)cc1", "active"),
    ("Cc1cc(O)c(C(=O)/C=C/c2ccccc2Br)c(=O)o1", "inactive"),
    ("COc1ccc(N2C(=O)CC(Sc3ncn[nH]3)C2=O)c(OC)c1 (stereo unspecified)", "active"),
]

Now look at this entry.
Inquiry: I'd appreciate the recorded outcome for CCOc1cc(C(=S)N2CCCCC2)ccc1OS(=O)(=O)c1ccc(Cl)cc1 from this test.
Reply text: inactive

----------
assay_summary: modulators of CIT2-GFP expression in yeast, confirmation, S. cerevisiae, GFP fusion, cherry picks, mother/daughter gates (AID 2274)
run_conditions: S. cerevisiae CIT2-GFP strain, flow cytometry, 3 h; measured here: daughter cell gate; at 10 µM; stronger effect = higher value
Entries and their GFP response, % of DMSO values follow.
Numbers only here, please. The scale is %.

# compound, GFP response, % of DMSO / %
measured = [
    ("Cc1ccc(/C=C2\\SC(=S)N(CC3CCCO3)C2=O)o1 (configuration not stated)", 97.6),
]

Inquiry: For O=c1[nH]n(Cc2ccccc2)c2ccccc12 , what is its reported GFP response, % of DMSO?
Reply text: 96.4

Inquiry: For O=C(OCC(=O)N1CCN(C(=O)c2ccco2)CC1)c1cc(-c2ccc(F)cc2)nc2ccccc12 , what is its reported GFP response, % of DMSO?
Reply text: 114

Inquiry: For COc1cccc2c1Oc1ncccc1N(C(=O)CCC(=O)NCc1ccc(F)cc1)C2 , what is its reported GFP response, % of DMSO?
Reply text: 105

Inquiry: For CCN1C(=O)/C(=C\C(=O)c2cccs2)c2cc(Br)ccc21 , what is its reported GFP response, % of DMSO?
Reply text: 104

Inquiry: For COc1ccc(N2C(=O)C(Cl)=C(Nc3c(C)n(C)n(-c4ccccc4)c3=O)C2=O)cc1 , what is its reported GFP response, % of DMSO?
Reply text: 87.2

Inquiry: For CN(C)CCCNc1cc(C(C)(C)C)nc2c(-c3ccc(Cl)cc3)cnn12 , what is its reported GFP response, % of DMSO?
Reply text: 94

Inquiry: For Cc1cc(OCc2ccc(C(=O)NN=C3CCCC3)cc2)ccc1Cl , what is its reported GFP response, % of DMSO?
Reply text: 91.5

Inquiry: For Cc1ccc(CCN2CC(C(=O)NCCCN(C)Cc3ccccc3)CC2=O)cc1 (configuration not stated) , what is its reported GFP response, % of DMSO?
Reply text: 103

Inquiry: For O=C(O)c1ccn2c(C(=O)c3ccccc3)c(-c3ccccc3)cc2c1 , what is its reported GFP response, % of DMSO?
Reply text: 95.4

Inquiry: For O=C(Nc1ccc(Cl)cc1Cl)c1cccc(N2C(=O)C=CC2=O)c1 , what is its reported GFP response, % of DMSO?
Reply text: 105

Inquiry: For C/C(=N\NC(=O)COc1ccccc1-c1ccccc1)c1ccccn1 , what is its reported GFP response, % of DMSO?
Reply text: 106

Inquiry: For Cc1[nH]n(-c2ccccc2)c(=O)c1C(c1ccccc1[N+](=O)[O-])C(C#N)C#N (configuration not stated) , what is its reported GFP response, % of DMSO?
Reply text: 113

Inquiry: For COc1ccccc1CN1C(=O)c2cccc3cccc(c23)C1=O , what is its reported GFP response, % of DMSO?
Reply text: 100

Inquiry: For CCOc1ccc(N/N=C(/C#N)C(N)=O)cc1 , what is its reported GFP response, % of DMSO?
Reply text: 128

Inquiry: For Cc1ccc(N2C(=O)C3C4C=CC(CNC(=S)N5CCN(c6ccccn6)CC5)(O4)C3C2=O)cc1 (configuration not stated) , what is its reported GFP response, % of DMSO?
Reply text: 100

----------
assay_summary: inhibitors of CD8+ T cell-vesicle binding, pilot screen, LFA-1/ICAM-1 modulator project, MLPCN validation set, flow cytometry (AID 2523);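 further: mean PE anti-B7-1 fluorescence of CD8+ cells relative to row control; 100% = QL9-loaded vesicles with DMSO vehicle in the same plate row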
run_conditions: 2C mouse CD8+ T cells, at 7 µM, stronger effect = lower value
Activity calls are given as the source filed them.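 Rule for the calls: active = response below a set limit, under 55% cells CD8-positive and vesicle-bound, and CD8 cells' 90th-percentile brightness under 279; inactive = the rest.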
measure_name: vesicle binding response

Below, each entry is followed by its recorded vesicle binding response result.
# molecule, measure_name, recorded_result
measured = [
    ("O=C(/C=C/c1ccc2c(c1)OCO2)c1ccccn1", "vesicle binding response", "181% (inactive)"),
    ("NC(=O)N1c2ccccc2C=Cc2ccccc21", "vesicle binding response", "120% (inactive)"),
    ("COc1ccc(-c2coc3cc(O)cc(O)c3c2=O)cc1", "vesicle binding response", "199% (inactive)"),
]

Inquiry: For Oc1ccc(Cl)cc1Cc1cc(Cl)ccc1O , what is its reported vesicle binding response?
Reply text: 194% (inactive)

Inquiry: For COc1cccc(OC)c1C(=O)NCCSC1CCCCC1 , what is its reported vesicle binding response?
Reply text: 68.6% (inactive)

Inquiry: For COc1ccc2nc(Nc3nc(CSc4ccc(C)cc4)cc(=O)[nH]3)nc(C)c2c1 , what is its reported vesicle binding response?
Reply text: 217% (inactive)

Inquiry: For Cn1c2ccccc2c2cc(/C=C(\NC(=O)c3ccccc3)C(=O)O)ccc21 , what is its reported vesicle binding response?
Reply text: 107% (inactive)

Inquiry: For COc1ccc(-c2coc3cc(OC(=O)N4CCOCC4)ccc3c2=O)cc1 , what is its reported vesicle binding response?
Reply text: 185% (inactive)

Inquiry: For C[C@H](NC(=O)NCCc1ccccc1)C(=O)O , what is its reported vesicle binding response?
Reply text: 252% (inactive)

Inquiry: For CC1/C(=C\c2ccc(Cl)cc2)C(=O)C2CC1C2(C)C (configuration not stated) , what is its reported vesicle binding response?
Reply text: 168% (inactive)

Inquiry: For Cc1ccccc1OCCSc1nc2ncnc(N)c2[nH]1 , what is its reported vesicle binding response?
Reply text: 163% (inactive)

Inquiry: For COc1ccc(-c2nc(C)c(C(C)=O)n2O)cc1OC , what is its reported vesicle binding response?
Reply text: 110% (inactive)

----------
system_tested: Integrin beta-1 (Homo sapiens) + Integrin alpha-4 (Homo sapiens) (UniProt P13612+P05556)
Sequence (P05556 whole entry, looked up): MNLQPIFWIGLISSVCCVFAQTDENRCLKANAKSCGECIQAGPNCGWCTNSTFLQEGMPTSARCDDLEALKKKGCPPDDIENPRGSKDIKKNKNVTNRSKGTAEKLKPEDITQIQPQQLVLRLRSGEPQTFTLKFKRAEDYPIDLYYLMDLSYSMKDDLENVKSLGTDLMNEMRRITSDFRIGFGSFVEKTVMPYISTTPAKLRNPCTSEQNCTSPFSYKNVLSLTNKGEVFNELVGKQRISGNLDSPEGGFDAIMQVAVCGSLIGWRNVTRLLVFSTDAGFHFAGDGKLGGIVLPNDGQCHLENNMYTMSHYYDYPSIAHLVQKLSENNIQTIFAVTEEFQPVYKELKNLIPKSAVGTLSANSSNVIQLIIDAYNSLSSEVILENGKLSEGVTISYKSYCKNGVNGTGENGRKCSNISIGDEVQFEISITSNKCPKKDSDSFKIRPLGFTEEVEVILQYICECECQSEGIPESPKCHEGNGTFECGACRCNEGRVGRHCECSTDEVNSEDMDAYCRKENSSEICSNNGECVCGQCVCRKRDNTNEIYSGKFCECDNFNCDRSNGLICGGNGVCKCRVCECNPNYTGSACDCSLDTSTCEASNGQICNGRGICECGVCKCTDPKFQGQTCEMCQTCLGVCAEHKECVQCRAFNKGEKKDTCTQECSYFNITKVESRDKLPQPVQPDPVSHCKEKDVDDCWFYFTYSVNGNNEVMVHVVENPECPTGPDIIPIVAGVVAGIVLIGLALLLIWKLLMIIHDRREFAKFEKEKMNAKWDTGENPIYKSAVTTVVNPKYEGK
Sequence (P13612 whole entry, looked up): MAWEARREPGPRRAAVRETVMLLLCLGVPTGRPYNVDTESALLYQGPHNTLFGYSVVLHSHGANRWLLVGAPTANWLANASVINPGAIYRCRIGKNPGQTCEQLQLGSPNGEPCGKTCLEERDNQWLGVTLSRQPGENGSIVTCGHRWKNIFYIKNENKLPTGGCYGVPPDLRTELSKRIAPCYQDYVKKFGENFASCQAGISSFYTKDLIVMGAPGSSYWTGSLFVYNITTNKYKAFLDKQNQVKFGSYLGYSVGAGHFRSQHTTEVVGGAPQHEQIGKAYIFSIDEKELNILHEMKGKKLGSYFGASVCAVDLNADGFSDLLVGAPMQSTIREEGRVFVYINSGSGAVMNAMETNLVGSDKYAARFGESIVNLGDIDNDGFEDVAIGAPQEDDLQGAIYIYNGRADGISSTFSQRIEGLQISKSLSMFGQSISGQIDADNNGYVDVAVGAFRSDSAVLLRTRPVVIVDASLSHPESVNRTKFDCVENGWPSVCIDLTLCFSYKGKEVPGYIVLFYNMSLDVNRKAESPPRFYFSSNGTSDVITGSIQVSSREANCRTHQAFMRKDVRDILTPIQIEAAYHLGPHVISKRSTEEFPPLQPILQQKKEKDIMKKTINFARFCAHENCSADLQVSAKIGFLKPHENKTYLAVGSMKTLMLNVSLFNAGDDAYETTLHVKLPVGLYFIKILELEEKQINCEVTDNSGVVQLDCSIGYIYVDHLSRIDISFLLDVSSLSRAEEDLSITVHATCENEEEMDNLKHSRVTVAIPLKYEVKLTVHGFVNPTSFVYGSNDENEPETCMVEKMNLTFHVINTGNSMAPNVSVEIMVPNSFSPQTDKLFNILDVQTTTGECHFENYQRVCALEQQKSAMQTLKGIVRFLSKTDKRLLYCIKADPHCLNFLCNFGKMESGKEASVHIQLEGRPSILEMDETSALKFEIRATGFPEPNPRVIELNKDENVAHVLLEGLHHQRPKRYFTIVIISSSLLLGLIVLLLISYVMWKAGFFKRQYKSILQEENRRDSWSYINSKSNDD
assay_summary: inhibition of HUTS-21 binding to VLA-4, pilot screen, VLA-4 allosteric modulator project, U937 cells, HUTS-21 mAb, flow cytometry, validation set (AID 2674);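 further: antibody binding induced by the VLA-4 ligand LDV present at three times its Kd; 0% = LDV ligand with antibody and no compound and 100% = antibody without LDV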
run_conditions: HUTS-21 LIBS mAb binding, at 6.7 µM, stronger effect = higher value, binding induced by LDV ligand
measure_name: inhibition (%)
Numbers only here, please. The scale is %.

Inquiry: For CC(=O)Oc1cc(C(C)C)c(OCCN(C)C)cc1C , what is its reported inhibition?
Reply text: -0.24

Inquiry: For Cc1ccc(C(CC(=O)NCc2ccco2)c2ccc(OC(C)C)cc2)cc1 (stereo unspecified) , what is its reported inhibition?
Reply text: -138

Inquiry: For Cc1ccc2c(c1)c1c3n2CCCNC3CCC1 (stereo unspecified) , what is its reported inhibition?
Reply text: 10
